Just for reference, PubChem BioAssay (EPA / NIEHS) is where these values come from.

Read-out: Tumor necrosis factor receptor 1 (TNFRSF1A), TNFRSF1A (gene 7132)
Test: LTEA_HepaRG_TNFRSF1A: Life Technologies and Expression Analysis (LTEA) Assay for Tumor necrosis factor receptor 1 (TNFRSF1A) using HepaRG (AID 2283535)
Conditions: mRNA level, 48 h; actives raise or lower the signal
Method: LTEA_HepaRG is a cell based, multiplexed-readout assay that uses HepaRG, a human liver cell line, with measurements taken at 48 hours after chemical dosing on a 96-well plate.LTEA_HepaRG_TNFRSF1A is one of 102 assay component(s) measured in the LTEA HepaRG cell culture assay. It is a marker of Cell proliferation, survival, death.Data from the assay component LTEA_HepaRG_TNFRSF1A was analyzed into 1 endpoint. […]
Active and inactive are the calls of the source. Rule for the calls: active = hit-call score of the fitted dose curve at least 0.9, where 1 is the maximum; inactive = score below 0.9.
readout label: outcome

Illustrative cases are given below, each with its answer.
Cc1ccc(N)cc1N inactive
CSC(C)(C)C=NO inactive
CC(C)(C)OOC(C)(C)C inactive
CCOP(=S)(OCC)SCSCC inactive
Cc1cccc(N)c1 inactive
CCCCN(CCCC)SN(C)C(=O)Oc1cccc2c1OC(C)(C)C2 inactive
CCOS(=O)(=O)OCC inactive

Let us examine a further case.
Fill blank: measured outcome of the compound O=[N+]([O-])c1ccc(Cl)c(Cl)c1 is ____.
inactive

* * *

experiment: CEETOX_H295R_11DCORT: CeeTox H295R High-throughput Steroidogenesis Assay for 11-Deoxycortisol (11DCORT) (AID 2283432); details: actives raise or lower the signal
Activity calls are given as the source filed them. The calls were made as follows: active = hit-call score of the fitted dose curve at least 0.9, where 1 is the maximum; inactive = score below 0.9.
Hello, when you answer, please use one of the following outcomes: active, inactive

compound	assigned category
c1ccc(OP(Oc2ccccc2)Oc2ccccc2)cc1	inactive

Name the outcome recorded for Cc1ccc(N)cc1N in the assay.
inactive

Name the outcome recorded for CCCCOCCOP(=O)(OCCOCCCC)OCCOCCCC in the assay.
inactive

Name the outcome recorded for CC(=O)c1ccc(-c2ccccc2)cc1 in the assay.
inactive

Name the outcome recorded for O=P(Oc1ccccc1)(Oc1ccccc1)Oc1ccccc1 in the assay.
active

* * *

assay: ATG_BRE_CIS: Attagene CIS-FACTORIAL HepG2 Assay for human Bone Morphogenetic Protein (BMP) Response Element (BRE) (AID 2282933); details: HepG2 BMP response element reporter, Attagene transcription factor profiling; actives raise or lower the signal
Activity calls are given as the source filed them. How the source made its calls: active means hit-call score of the fitted dose curve at least 0.9, where 1 is the maximum; inactive means score below 0.9.
Hello, when you answer, please use one of the following outcomes: 1 for active, 0 for inactive

These recorded examples may help you get a feel for the data.
compound	assigned category
ClC1=C(Cl)C2(Cl)C3C(Cl)C(Cl)CC3C1(Cl)C2(Cl)Cl (configuration not stated)	0
NNC(N)=S	0
O=P(OCC(Br)CBr)(OCC(Br)CBr)OCC(Br)CBr (configuration not stated)	1
O=S1(=O)OCC2C(CO1)C1(Cl)C(Cl)=C(Cl)C2(Cl)C1(Cl)Cl (configuration not stated)	0
CC(C)CBr	0

Name the outcome recorded for CCOP(=S)(OCC)SCn1nnc2ccccc2c1=O in the assay.
1

Name the outcome recorded for CCC1(c2ccccc2)C(=O)N=C(O)NC1=O (configuration not stated) in the assay.
0

Name the outcome recorded for Oc1ccc(I)cc1 in the assay.
0

* * *

Read-out: Plasminogen activator inhibitor-1 (PAI1), SERPINE1 (gene 5054)
Experiment: BSK_hDFCGF_PAI1: BioMAP Diversity Plus: hDFCGF Assay for Plasminogen activator inhibitor-1 (PAI1) Biomarker Activity (AID 2283066)
Settings: primary human foreskin fibroblasts; actives raise or lower the signal
Protocol: BSK_hDFCGF is a cell-based, multiplexed-readout assay that uses foreskin fibroblast, a human skin primary cell, with measurements taken at 24 hours after chemical dosing in a 96-well plate.BSK_hDFCGF_PAI1 is an assay component measured in the BSK_hDFCGF assay. It measures PAI-1 antibody related to regulation of gene expression using ELISA technology.Data from the assay component BSK_hDFCGF_PAI1 was analyzed into 1 assay endpoint. […]
Activity calls are given as the source filed them. Rule for the calls: active = hit-call score of the fitted dose curve at least 0.9, where 1 is the maximum; inactive = score below 0.9.
Hello, when you answer, please use one of the following outcomes: t = active, f = inactive

These recorded examples may help you get a feel for the data.
molecule	assigned category
CCCCN(CCCC)N=O	f
CCOP(=S)(NC(C)C)Oc1ccccc1C(=O)OC(C)C (stereo not given)	t
OCC(F)(F)OC(F)(F)C(F)(F)OC(F)(F)CO	f

Name the outcome recorded for OCC1CO1 (stereo not given) in the assay.
f

Name the outcome recorded for COCCOCCO in the assay.
f
